Would you mind telling me the reported pEC50 of each entry?
Target: Toll-like receptor 8 (Homo sapiens)
Sequence (Q9NR97 whole entry): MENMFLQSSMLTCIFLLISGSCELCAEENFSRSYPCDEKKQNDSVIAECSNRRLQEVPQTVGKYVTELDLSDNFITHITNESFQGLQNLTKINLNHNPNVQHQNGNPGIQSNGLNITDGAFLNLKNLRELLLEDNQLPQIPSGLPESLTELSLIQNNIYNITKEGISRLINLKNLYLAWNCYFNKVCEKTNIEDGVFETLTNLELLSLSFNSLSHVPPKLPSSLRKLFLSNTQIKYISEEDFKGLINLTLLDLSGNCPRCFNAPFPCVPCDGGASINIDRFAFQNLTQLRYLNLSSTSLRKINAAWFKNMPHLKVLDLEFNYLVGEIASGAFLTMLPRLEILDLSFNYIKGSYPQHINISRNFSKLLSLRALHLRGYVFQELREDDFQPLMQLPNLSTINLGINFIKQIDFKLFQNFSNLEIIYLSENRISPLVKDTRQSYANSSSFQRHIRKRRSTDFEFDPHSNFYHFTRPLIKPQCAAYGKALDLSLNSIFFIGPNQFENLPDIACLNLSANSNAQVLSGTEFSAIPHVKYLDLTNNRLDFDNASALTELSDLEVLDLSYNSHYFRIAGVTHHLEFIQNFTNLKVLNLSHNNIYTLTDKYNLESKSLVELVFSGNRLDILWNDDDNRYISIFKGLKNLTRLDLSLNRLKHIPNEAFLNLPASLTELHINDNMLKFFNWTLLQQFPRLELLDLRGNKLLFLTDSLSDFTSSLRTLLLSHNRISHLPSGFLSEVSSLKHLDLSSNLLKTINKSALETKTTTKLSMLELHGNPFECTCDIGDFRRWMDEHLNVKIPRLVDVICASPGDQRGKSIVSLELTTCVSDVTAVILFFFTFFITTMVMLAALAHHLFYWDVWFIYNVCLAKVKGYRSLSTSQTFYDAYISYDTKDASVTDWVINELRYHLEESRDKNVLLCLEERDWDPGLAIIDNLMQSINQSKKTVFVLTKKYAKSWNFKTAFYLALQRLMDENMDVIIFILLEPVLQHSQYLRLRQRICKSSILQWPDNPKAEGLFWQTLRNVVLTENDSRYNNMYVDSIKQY
Assay: Agonist activity at human TLR8 expressed in HEK293 cells co-expressing secreted alkaline phosphatase assessed as induction of NF-kappaB/AP-1 promoter activity by measuring increase in secreted alkaline phosphatase level by spectrophotometric method
Type: cell-based
# pEC50 = -log10(concentration in molar units)

Any idea what pEC50 was measured for CCCCNc1nc(N)nc(C)c1CCCCO ?
5.88

Same read-out for CCCCNc1nc(N)nc(C)c1CCC(C)(C)O ?
5.50

Param item: CCCCNc1nc(N)nc(C)c1CCCCc1ccccc1
6.07

Repeat with CCCCCc1c(C)nc(N)nc1NCCCC
5.91

Next compound up: CCCC#Cc1c(C)nc(N)nc1NCCCC
5.30

Lookup CCCCNc1nc(N)nc(C)c1C#C[Si](C)(C)C
5.03

Then CCCCNc1nc(N)nc(C)c1CCCN1Cc2ccccc2C1 ?
7.54

Then CCCCNc1nc(N)nc(C)c1CCCCN1CCOCC1 ?
6.89

// same read-out, input: CCCCNc1nc(N)nc(C)c1CCCN1CCCCC1
6.88

Lookup CCCCNc1nc(N)nc(C)c1CCCN(C)C
6.90

Subsequent entry: CCCCNc1nc(N)nc(C)c1CCCn1cncn1
5.98

Now the same for CCCCNc1nc(N)nc(C)c1CCCN1CCNCC1
6.30

Proceed to CCCCNc1nc(N)nc(C)c1C#CCN1CCCCC1
5.42

----------
molecular target: Toll-like receptor 7 (Homo sapiens, UniProt Q9NYK1); assay: Agonist activity at human TLR7 expressed in HEK293 cells co-expressing secreted alkaline phosphatase assessed as induction of NF-kappaB/AP-1 promoter activity by measuring increase in secreted alkaline phosphatase level by spectrophotometric method
Sequence (Q9NYK1 whole entry): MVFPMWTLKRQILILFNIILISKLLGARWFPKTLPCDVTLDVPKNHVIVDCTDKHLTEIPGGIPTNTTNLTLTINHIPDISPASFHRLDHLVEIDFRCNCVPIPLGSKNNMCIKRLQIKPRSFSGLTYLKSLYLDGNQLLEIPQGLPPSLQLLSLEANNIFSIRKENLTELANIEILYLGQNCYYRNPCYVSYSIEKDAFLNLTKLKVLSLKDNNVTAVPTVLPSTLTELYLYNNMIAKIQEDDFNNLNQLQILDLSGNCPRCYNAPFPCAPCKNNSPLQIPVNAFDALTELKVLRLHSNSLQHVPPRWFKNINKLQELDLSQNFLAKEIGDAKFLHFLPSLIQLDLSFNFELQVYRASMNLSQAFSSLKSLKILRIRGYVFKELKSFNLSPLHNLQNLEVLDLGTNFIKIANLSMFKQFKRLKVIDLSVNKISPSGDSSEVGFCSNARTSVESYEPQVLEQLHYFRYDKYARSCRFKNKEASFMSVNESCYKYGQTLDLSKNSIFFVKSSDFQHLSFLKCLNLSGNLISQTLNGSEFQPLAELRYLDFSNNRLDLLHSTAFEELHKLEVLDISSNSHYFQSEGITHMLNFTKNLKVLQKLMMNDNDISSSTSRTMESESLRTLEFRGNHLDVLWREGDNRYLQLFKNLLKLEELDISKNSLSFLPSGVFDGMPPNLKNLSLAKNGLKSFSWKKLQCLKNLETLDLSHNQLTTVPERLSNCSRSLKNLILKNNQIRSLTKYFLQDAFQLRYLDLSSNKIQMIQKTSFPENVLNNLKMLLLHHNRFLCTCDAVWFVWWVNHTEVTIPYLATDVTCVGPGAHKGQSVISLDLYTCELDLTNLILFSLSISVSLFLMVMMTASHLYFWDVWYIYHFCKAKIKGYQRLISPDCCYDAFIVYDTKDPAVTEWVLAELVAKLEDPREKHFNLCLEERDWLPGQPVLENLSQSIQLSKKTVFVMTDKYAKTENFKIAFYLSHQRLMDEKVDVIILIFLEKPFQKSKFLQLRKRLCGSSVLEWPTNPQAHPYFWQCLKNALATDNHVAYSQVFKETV
Please respond with reported pEC50 for every item in the list.
Remember, pEC50 is on a log scale: it is -log10 of the molar concentration.

Report pEC50 for CCCCNc1nc(N)nc(C)c1CCCn1cccn1 please.
6.40

Same thing, different molecule: CCCCNc1nc(N)nc(C)c1CCCN1CCCC1
6.25

Repeat for the following molecule: CCCCNc1nc(N)nc(C)c1CCc1ccccc1
5.55

----------
Could you please report measured pEC50 for the items listed next?
target: Toll-like receptor 7 (Homo sapiens); assay: Agonist activity at human TLR7 expressed in HEK293 cells co-expressing secreted alkaline phosphatase assessed as induction of NF-kappaB/AP-1 promoter activity by measuring increase in secreted alkaline phosphatase level by spectrophotometric method
The value called pEC50 is obtained by taking minus log10 of the concentration in mol/L.

What measured pEC50 goes with CCCCNc1nc(N)nc(C)c1CCCCc1ccccc1 ?
6.58

Next compound: CCCCNc1nc(N)nc(C)c1CCCN1CCCCCC1
6.14

Also, CCCCNc1nc(N)nc(C)c1CCCN(C)C please.
6.02

Then CCCCNc1nc(N)nc(C)c1CCCCCc1ccccc1 ?
6.58

Subsequent entry: CCCCNc1nc(N)nc(C)c1CCCN1CCN(c2ccccc2)CC1
5.94

// same read-out, input: CCCCNc1nc(N)nc(C)c1CCCN1CCCCC1
6.15

Cool, now CCCCNc1nc(N)nc(C)c1CC
5.90

One more compound: CCCCNc1nc(N)nc(C)c1CCCN1CCN(C)CC1
6.60

Also check CCCCNc1nc(N)nc(C)c1CCCC
6.23

And the next one, CCCCNc1nc(N)nc(C)c1CCCC(C)(C)O ?
5.54

Input CCCCCc1c(C)nc(N)nc1NCCCC
6.29

Also check CCCCNc1nc(N)nc(C)c1CCCN1C(=O)c2ccccc2C1=O
5.89

Please give the result for CCCCNc1nc(N)nc(C)c1CCC(C)(C)O too.
5.49

----------
target: Toll-like receptor 4 (Homo sapiens) (UniProt O00206); assay: Activity at human TLR4 expressed in HEK293 cells co-expressing secreted alkaline phosphatase assessed as induction of NF-kappaB/AP-1 promoter activity by measuring increase in secreted alkaline phosphatase level by spectrophotometric method; assay type: cell-based
Sequence (O00206 whole entry): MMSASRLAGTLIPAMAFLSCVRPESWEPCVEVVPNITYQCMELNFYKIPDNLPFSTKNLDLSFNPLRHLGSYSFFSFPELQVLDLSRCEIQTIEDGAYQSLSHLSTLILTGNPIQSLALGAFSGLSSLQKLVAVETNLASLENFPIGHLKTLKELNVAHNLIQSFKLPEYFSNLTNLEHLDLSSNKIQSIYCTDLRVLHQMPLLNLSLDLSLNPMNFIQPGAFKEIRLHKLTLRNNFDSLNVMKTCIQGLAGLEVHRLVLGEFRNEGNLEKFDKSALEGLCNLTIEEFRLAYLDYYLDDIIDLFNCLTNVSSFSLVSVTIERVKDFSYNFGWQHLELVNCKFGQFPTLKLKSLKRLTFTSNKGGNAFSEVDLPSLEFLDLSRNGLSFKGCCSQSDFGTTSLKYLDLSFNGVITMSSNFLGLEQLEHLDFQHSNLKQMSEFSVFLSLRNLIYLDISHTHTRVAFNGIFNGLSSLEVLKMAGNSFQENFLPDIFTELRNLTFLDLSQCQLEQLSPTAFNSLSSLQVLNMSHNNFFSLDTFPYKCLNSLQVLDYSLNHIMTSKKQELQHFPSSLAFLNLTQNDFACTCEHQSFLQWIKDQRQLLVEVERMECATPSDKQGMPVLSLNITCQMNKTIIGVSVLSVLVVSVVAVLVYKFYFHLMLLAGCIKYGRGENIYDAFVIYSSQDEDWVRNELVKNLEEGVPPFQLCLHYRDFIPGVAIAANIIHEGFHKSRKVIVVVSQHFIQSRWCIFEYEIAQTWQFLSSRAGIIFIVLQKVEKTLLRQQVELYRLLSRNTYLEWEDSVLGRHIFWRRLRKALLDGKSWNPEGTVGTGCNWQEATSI
Active and inactive are the calls of the source. No cut-off for these calls is given here.
observable: Activity

CCCCNc1nc(N)nc(C)c1Cc1ccccc1 :: inactive
CCCCNc1nc(N)nc(C)c1C#C[Si](C)(C)C :: inactive
CCCCNc1nc(N)nc(C)c1CCCN(CC)CC :: inactive

----------
biological target: Toll-like receptor 3 (Homo sapiens); test: Activity at human TLR3 expressed in HEK293 cells co-expressing secreted alkaline phosphatase assessed as induction of NF-kappaB/AP-1 promoter activity by measuring increase in secreted alkaline phosphatase level by spectrophotometric method; assay type: cell-based
Calls of active or inactive are those of the source. No cut-off for these calls is given here.
observable: Activity

Take a look at these entries with their results.
CCCCNc1nc(N)nc(C)c1C#C[Si](C)(C)C :: inactive
CCCCNc1nc(N)nc(C)c1CCCCO :: inactive
CCCCNc1nc(N)nc(C)c1CCCC(C)(C)O :: inactive
CCCCNc1nc(N)nc(C)c1CCCn1cncn1 :: inactive
CCCCNc1nc(N)nc(C)c1CCCN(C)C :: inactive
CCCCNc1nc(N)nc(C)c1CCCN1C(=O)c2ccccc2C1=O :: inactive
CCCCNc1nc(N)nc(C)c1CCCN1CCOCC1 :: inactive
CCCCNc1nc(N)nc(C)c1C#CCN1CCOCC1 :: inactive

Which Activity reading was recorded for the molecule CCCCNc1nc(N)nc(C)c1CCCN(CC)CC ?
inactive

Subsequent entry: CCCCNc1nc(N)nc(C)c1CCCN1CCNCC1
inactive

----------
biological target: Toll-like receptor 9 (Homo sapiens) (UniProt Q9NR96); test: Activity at human TLR9 expressed in HEK293 cells co-expressing secreted alkaline phosphatase assessed as induction of NF-kappaB/AP-1 promoter activity by measuring increase in secreted alkaline phosphatase level by spectrophotometric method; format: cell-based
Sequence (Q9NR96 whole entry): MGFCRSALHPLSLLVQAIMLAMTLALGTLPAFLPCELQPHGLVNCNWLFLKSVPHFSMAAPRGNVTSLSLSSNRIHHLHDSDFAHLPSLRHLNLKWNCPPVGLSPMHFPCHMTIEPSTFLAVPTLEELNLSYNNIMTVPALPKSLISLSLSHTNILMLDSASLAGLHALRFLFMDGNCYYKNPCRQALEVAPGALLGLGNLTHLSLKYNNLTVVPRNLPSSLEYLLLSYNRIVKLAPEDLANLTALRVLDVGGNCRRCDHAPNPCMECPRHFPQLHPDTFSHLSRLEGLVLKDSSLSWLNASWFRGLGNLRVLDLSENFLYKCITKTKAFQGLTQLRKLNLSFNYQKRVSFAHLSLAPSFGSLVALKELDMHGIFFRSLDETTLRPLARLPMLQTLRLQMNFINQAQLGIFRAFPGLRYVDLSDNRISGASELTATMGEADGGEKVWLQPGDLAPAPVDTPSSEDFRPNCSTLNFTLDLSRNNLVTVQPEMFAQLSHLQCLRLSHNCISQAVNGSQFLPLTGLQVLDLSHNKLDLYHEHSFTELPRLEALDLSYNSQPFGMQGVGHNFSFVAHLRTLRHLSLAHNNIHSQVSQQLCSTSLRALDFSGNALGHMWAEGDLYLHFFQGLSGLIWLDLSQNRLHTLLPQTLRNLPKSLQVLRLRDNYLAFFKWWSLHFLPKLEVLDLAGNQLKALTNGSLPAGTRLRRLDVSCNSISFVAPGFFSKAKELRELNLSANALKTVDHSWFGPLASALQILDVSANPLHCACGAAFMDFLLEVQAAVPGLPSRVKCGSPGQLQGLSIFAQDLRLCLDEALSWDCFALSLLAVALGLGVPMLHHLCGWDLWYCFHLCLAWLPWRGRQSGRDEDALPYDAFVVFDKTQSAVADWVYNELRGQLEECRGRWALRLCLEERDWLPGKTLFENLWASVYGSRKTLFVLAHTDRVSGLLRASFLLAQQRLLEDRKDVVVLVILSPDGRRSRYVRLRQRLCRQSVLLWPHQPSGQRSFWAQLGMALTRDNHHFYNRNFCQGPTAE
Activity calls are given as the source filed them. The calls are words filed in the database; no cut-off is given here.
observable: Activity

These recorded examples may help you get a feel for the data.
CCCCNc1nc(N)nc(C)c1CCCCc1ccccc1 :: inactive
CCCCNc1nc(N)nc(C)c1C#CCc1ccccc1 :: inactive
CCCCNc1nc(N)nc(C)c1CCCN1C(=O)c2ccccc2C1=O :: inactive
CCCCNc1nc(N)nc(C)c1CCCC(C)(C)O :: inactive
CCCCNc1nc(N)nc(C)c1CCCCN1CCOCC1 :: inactive
CCCCNc1nc(N)nc(C)c1CCCn1ccc2ccccc21 :: inactive

Given the compound CCCCNc1nc(N)nc(C)c1CCCN1Cc2ccccc2C1 , what is its reported Activity?
inactive

Same question for CCCCNc1nc(N)nc(C)c1CCCN1CCN(C(=O)OC(C)(C)C)CC1 please.
inactive

Repeat for the following compound: CCCCNc1nc(N)nc(C)c1CCCC
inactive

Could you do the same for CCCCNc1nc(N)nc(C)c1CCC(C)(C)O , please?
inactive

Follow-up item: CCCCNc1nc(N)nc(C)c1CCCN1CCCC1
inactive

Entry to check: CCCCNc1nc(N)nc(C)c1C
inactive

Repeat for the following compound: CCCCNc1nc(N)nc(C)c1CCCN1CCSCC1
inactive
